Biological target: human PD-1 (human, UniProt Q15116 25-288)
Sequence (Q15116 25-288 limits assumed): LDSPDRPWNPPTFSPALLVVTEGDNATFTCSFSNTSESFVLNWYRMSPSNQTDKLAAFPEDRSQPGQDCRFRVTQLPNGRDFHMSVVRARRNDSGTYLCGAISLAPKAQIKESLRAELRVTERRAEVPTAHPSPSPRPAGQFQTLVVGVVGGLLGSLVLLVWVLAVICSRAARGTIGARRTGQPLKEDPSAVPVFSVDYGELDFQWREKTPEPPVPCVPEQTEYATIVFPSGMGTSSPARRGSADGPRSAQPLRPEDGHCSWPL
Assay: cell-based or functional assay
Measurement type: M07e-hPD-1 cell proliferation ratio (%) at 10 nM
Answers are plain numbers, in %.

Examples from the recorded data:
Binder	Result
A-N88D-M08 (Fc fusion, also called A-N88D-M8; not shown: IgG1 hinge (C220S) + Fc Knob chain as in A-N88D; IgG1 hinge (C220S) + Fc Hole chain as in A-N88D) chain (part 1 of 2): EVQLVESGGGLVQPGGSLRLSCAASGLTFSDYSMSWYRQAPGKGRELVAIISGSGVITHYVDSVKGRFTISRDNAKNTLYLQMRSLRAEDTAVYYCRAVSDWQDYWGQGTQVTVSS chain (part 2 of 2): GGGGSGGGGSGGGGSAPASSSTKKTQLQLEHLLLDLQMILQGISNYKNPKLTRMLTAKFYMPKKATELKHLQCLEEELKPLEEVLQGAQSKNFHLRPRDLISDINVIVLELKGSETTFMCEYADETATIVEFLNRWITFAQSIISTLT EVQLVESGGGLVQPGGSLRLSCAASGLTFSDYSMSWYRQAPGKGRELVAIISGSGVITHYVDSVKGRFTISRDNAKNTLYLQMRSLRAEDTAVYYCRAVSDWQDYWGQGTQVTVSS	35.5
A-N88D-M28 (Fc fusion, not shown: IgG1 hinge (C220S) + Fc Knob chain as in A-N88D; IgG1 hinge (C220S) + Fc Hole chain as in A-N88D) chain (part 1 of 2): EVQLVESGGGLVQPGGSLRLSCAASGLTFSSYSMSWYRQAPGKGRELVAIISGSGGITHYADSVKGRFTISRDNAKNTLYLQMRSLRAEDTAVYYCRAVSDWQDYWGQGTQVTVSS chain (part 2 of 2): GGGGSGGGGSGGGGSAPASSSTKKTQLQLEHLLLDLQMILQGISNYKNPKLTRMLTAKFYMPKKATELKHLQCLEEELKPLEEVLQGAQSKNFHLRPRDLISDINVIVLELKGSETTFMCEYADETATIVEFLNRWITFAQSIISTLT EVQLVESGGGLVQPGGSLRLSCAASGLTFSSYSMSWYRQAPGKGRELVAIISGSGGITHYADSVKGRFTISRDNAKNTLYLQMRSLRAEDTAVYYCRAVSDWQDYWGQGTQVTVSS	19.1

The record that follows has no M07e-hPD-1 cell proliferation ratio (%) at 10 nM shown yet.
Given A-PC (Fc fusion, also called positive control molecule A-PC; PD-1-IL-2v; not shown: IgG1 hinge (C220S) + Fc Knob chain (L234A, L235A, S354C, T366W, EU); D356/L358 or E356/M358 ver; IgG1 hinge (C220S) + Fc Hole chain (L234A, L235A, Y349C, T366S, L368A, Y407V; may have H435R, Y436F; EU)) chain (part 1 of 2): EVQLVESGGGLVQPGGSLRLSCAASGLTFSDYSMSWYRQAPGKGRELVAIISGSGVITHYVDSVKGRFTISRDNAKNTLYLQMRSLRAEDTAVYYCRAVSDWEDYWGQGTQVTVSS chain (part 2 of 2): GGGGSGGGGSGGGGSAPASSSTKKTQLQLEHLLLDLQMILQGISNYKNPKLTRMLTAKFYMPKKATELKHLQCLEEELKPLEEVLQGAQSKNFHLRPRDLISNINVIVLELKGSETTFMCEYADETATIVEFLNRWITFAQSIISTLT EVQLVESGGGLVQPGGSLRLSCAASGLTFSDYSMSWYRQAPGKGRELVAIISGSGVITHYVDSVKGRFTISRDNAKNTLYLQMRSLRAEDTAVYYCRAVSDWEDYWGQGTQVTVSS , state its recorded M07e-hPD-1 cell proliferation ratio (%) at 10 nM. 107
